Experiment: Half life in Wistar/Han rat at 2.6 mg/kg, iv
Assay type: ADME, organism-based
Parameters: dose 2.6 mg/kg, route intravenous
Details: in vivo
Experimental readout: half-life
Your reply should be a number followed by the unit it is expressed in.

Given the entry `COc1ccc(-c2cc(C(C)(C)C)c(OC)c3cc(-c4ccc(NS(C)(=O)=O)cc4)cnc23)c(=O)[nH]1` , report its measured half-life.
258 min

====

Tested on: Hepatitis C virus
Experiment: Antiviral activity against Hepatitis C virus genotype 1a clinical isolate RO-18 expressing NS5B assessed as inhibition of viral replication after 4 days by luciferase reporter gene assay
Format: functional, organism-based, Hepacivirus hominis
Conditions: genotype 1a clinical isolate RO-18, 96 h
pEC50 by entry:
The value called pEC50 is obtained by taking minus log10 of the concentration in mol/L.

COc1ccc(-c2cc(C(C)(C)C)c(OC)c3cc(-c4ccc(NS(C)(=O)=O)cc4)cnc23)c(=O)[nH]1 :: 9.40

// below: pEC50 requested for another compound
I'm curious: which pEC50 was measured for `COc1ccc(-c2cc(C(C)(C)C)c(OC)c3cc(N4CC[C@H](CNS(C)(=O)=O)C4)cnc23)c(=O)[nH]1` tested on Hepatitis C virus?
9.30
